TARGET_UNDER_TEST: human mu opioid receptor (Homo sapiens)
TEST_PROTOCOL: Radioligand binding assay, human mu opioid receptor
CONDITION_SUMMARY: displacement of [3H]-Diprenorphine 0.5 nM, CHO-K1 cell membranes; read-out: pKi at the human mu opioid receptor (converted)
MEASURED_METRIC: Ki (nM)

In [3]: df
Out[3]:
                                   molecule                        target_under_test  measured_metric  obs_value
0  CO[C@@H]1Cc2ccc(C(N)=O)cc2C(C)(C)[C@H]1NCCCNC(=O)CC(C)(C)C (relative stereo)  human mu opioid receptor (Homo sapiens)               Ki        0.2
1  CO[C@@H]1Cc2ccc(C(N)=O)cc2C(C)(C)[C@H]1NCCCNC(=O)c1ccccc1 (relative stereo)  human mu opioid receptor (Homo sapiens)               Ki      0.126

[1] CO[C@H]1Cc2ccc(C(N)=O)cc2C(C)(C)[C@@H]1NCCCNC(=O)CC(C)(C)C
[2] CO[C@@H]1Cc2ccc(C(N)=O)cc2C(C)(C)[C@H]1NCCCNC(=O)C1CCCCC1 (relative stereo)
Hello, I am sorting some records. Could you say if 1 or 2 has the smaller Ki value? Your answer should be the label of the entry you select.
1
(1: 0.0631 nM, 2: 0.158 nM)

====

TARGET_UNDER_TEST: human mu opioid receptor (Homo sapiens, UniProt P35372)
Sequence (P35372 whole entry): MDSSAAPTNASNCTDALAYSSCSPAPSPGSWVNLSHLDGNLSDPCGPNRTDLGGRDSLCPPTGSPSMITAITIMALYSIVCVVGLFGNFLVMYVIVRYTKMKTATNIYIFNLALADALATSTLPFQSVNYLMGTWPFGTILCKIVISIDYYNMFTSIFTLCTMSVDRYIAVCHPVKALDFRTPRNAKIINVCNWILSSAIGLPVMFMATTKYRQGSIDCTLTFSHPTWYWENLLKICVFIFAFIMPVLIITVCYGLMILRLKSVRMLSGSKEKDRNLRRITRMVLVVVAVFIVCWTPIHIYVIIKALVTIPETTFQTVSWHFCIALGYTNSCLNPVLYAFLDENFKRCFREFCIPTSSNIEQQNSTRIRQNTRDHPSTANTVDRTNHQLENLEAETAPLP
TEST_PROTOCOL: Radioligand binding assay, human mu opioid receptor
MEASURED_METRIC: pKi
On this scale, pKi is minus log10 of a concentration expressed in M (mol/L).

Give the value of pKi reported for the following: COC1Cc2ccc(C(N)=O)cc2C(C)(C)C1NC[C@H](N)Cc1ccccc1 (single isomer, unassigned)
8.80
